The reported numbers originate from PubChem BioAssay.

Assay protocol: compounds altering HSF1 focus formation in cells – imaging, Selleck Cancer Library (AID 1347162)
Measurement context: human cells, HSF1 nuclear foci imaging, at 10 µM; measured here: cell number
// NB: equality with 7000 counts as rule not met; only cell count strictly below is rule met

- Molecule: "N#CCNC(=O)c1ccc(-c2ccnc(Nc3ccc(N4CCOCC4)cc3)n2)cc1"
  Label class: "rule not met"
- Molecule: "c1ccc2c(-c3cnn4cc(-c5ccc(N6CCNCC6)cc5)cnc34)ccnc2c1"
  Label class: "rule met"
- Molecule: "O=C(NCCCNc1nc(Nc2cccc(NC(=O)N3CCCC3)c2)ncc1I)c1cccs1"
  Label class: "rule not met"
- Molecule: "CCN(CC)CCCCNc1ncc2cc(-c3cc(OC)cc(OC)c3)c(NC(=O)NC(C)(C)C)nc2n1"
  Label class: "rule not met"
- Molecule: "COc1cc(N2CCC(N3CCN(C)CC3)CC2)ccc1Nc1ncc(Cl)c(Nc2ccccc2S(=O)(=O)C(C)C)n1"
  Label class: "rule met"
- Molecule: "CC(C)c1ccccc1Cc1cc(C(=O)Nc2ccc(S(=O)(=O)c3ccccc3C(C)(C)C)cc2)c(O)c(O)c1O"
  Label class: "rule not met"
- Molecule: "c1ccc2c(CCNc3ccc(Nc4ccncc4)cc3)c[nH]c2c1"
  Label class: "rule met"
- Molecule: "O=C(NC1CCNCC1)c1[nH]ncc1NC(=O)c1c(Cl)cccc1Cl"
  Label class: "rule not met"
- Molecule: "Nc1nc(Nc2ccc(S(N)(=O)=O)cc2)nn1C(=O)c1c(F)cccc1F"
  Label class: "rule met"
- Molecule: "COc1ccc(C2CC(c3ccccc3)=NN2c2ccc(S(N)(=O)=O)cc2)cc1 (stereo not given)"
  Label class: "rule not met"
- Molecule: "CC[C@@H]1C(=O)N(C)c2cnc(Nc3ccc(C(=O)NC4CCN(C)CC4)cc3OC)nc2N1C1CCCC1"
  Label class: "rule not met"
- Molecule: "Cc1ccc(NC(=O)c2cccc(C(C)(C)C#N)c2)cc1Nc1ccc2ncn(C)c(=O)c2c1"
  Label class: "rule not met"
- Molecule: "Nc1ccc(-c2ccc3ncc4ccc(=O)n(-c5cccc(C(F)(F)F)c5)c4c3c2)cn1"
  Label class: "rule met"
- Molecule: "CNC(=O)[C@@H](NC(=O)[C@H](CC(C)C)[C@H](O)C(=O)NO)C(C)(C)C"
  Label class: "rule met"
- Molecule: "CCC[C@H](NC(=O)/C(C#N)=C/c1cccc(Br)n1)c1ccccc1"
  Label class: "rule met"
- Molecule: "CC1(O)CC(c2nc(-c3ccc4ccc(-c5ccccc5)nc4c3)c3c(N)nccn23)C1 (stereo not given)"
  Label class: "rule met"
- Molecule: "NC(=O)Nc1cc(-c2cccc(F)c2)sc1C(=O)N[C@H]1CCCNC1"
  Label class: "rule not met"
- Molecule: "COc1cc(Nc2ncc(F)c(Nc3ccc4c(n3)N(COP(=O)(O)O)C(=O)C(C)(C)O4)n2)cc(OC)c1OC"
  Label class: "rule not met"
- Molecule: "CS(=O)(=O)c1cccc(CNc2nc(Nc3ccc4c(c3)CCC(=O)N4)ncc2C(F)(F)F)c1"
  Label class: "rule not met"
- Molecule: "C[C@@H]1CN(CC(=O)Nc2ccc3c(c2)Cc2cccc(-c4cc(=O)cc(N5CCOCC5)o4)c2S3)C[C@H](C)O1"
  Label class: "rule met"
- Molecule: "CC(C)C[C@H](NC(=O)CNC(=O)c1cc(Cl)ccc1Cl)B1OC(=O)CC(CC(=O)O)(C(=O)O)O1 (stereo not given in full)"
  Label class: "rule not met"
- Molecule: "C[C@]12CC[C@H](O)CC1=CC[C@@H]1[C@@H]2CC[C@]2(C)C(c3cccnc3)=CC[C@@H]12"
  Label class: "rule not met"
- Molecule: "S=C(NCc1ccc2c(c1)OCO2)N1CCN(c2ncnc3c2oc2ccccc23)CC1"
  Label class: "rule not met"
- Molecule: "O=C(O)[C@H](Cc1c[nH]c2ccccc12)N1C(=O)c2ccccc2C1=O"
  Label class: "rule not met"
- Molecule: "Cc1cn(-c2cc(NC(=O)c3ccc(C)c(Nc4nccc(-c5cccnc5)n4)c3)cc(C(F)(F)F)c2)cn1"
  Label class: "rule not met"

---

Assay protocol: growth inhibition of DIPG cells – cell-based, MIPE5.0 library, qHTS (AID 1347068);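 as to IC50: cells exposed to compound for 48 hours before viability readout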
Measurement context: SU-DIPG-XXV viability
Records with an inconclusive call do not appear. Active and inactive are the calls of the source. No cut-off is given here; in the data, nearly all actives have IC50 up to about 30 µM.

- Compound: "CCCCCCCc1ccc(CCc2cccc(O)c2C(=O)O)cc1"
  IC50: "inactive"
- Compound: "CCOc1ccc(-n2c([C@@H](C)N(Cc3cccnc3)C(=O)Cc3ccc(F)c(C(F)(F)F)c3)nc3ncccc3c2=O)cc1"
  IC50: "inactive"
- Compound: "C=C1[C@H](CO)[C@@H](O)C[C@@H]1n1cnc2c(=O)[nH]c(N)nc21"
  IC50: "inactive"
- Compound: "Nc1ncccc1-c1nc2ccc(-c3ccccc3)nc2n1-c1ccc(C2(N)CCC2)cc1"
  IC50: "20.9 µM (active)"
- Compound: "C[C@@H](Oc1cc(-c2cnn(C3CCNCC3)c2)cnc1N)c1c(Cl)ccc(F)c1Cl"
  IC50: "4.68 µM (active)"
- Compound: "Cc1cnc(Nc2ccc(OCCN3CCCC3)cc2)nc1Nc1cccc(S(=O)(=O)NC(C)(C)C)c1"
  IC50: "7.42 µM (active)"
- Compound: "COc1cc(F)c(F)c(Nc2ccc(I)cc2F)c1NS(=O)(=O)C1(C[C@H](O)CO)CC1"
  IC50: "2.63 µM (active)"
- Compound: "O=C(CCCCCCC(=O)N/N=C/c1ccc(N(c2ccccc2)c2ccccc2)cc1)NO"
  IC50: "inactive"
- Compound: "CS(=O)(=O)Nc1cc2occ(NC=O)c(=O)c2cc1Oc1ccccc1"
  IC50: "inactive"
- Compound: "CCN(CC)CCCC[C@H](NC(=O)[C@H](CC(C)C)NC(=O)[C@H](C)NC(=O)[C@H](Cc1ccccc1)NC(=O)c1ccc(C(C)(C)C)cc1)C(=O)N[C@@H](CO)C(=O)OC"
  IC50: "inactive"
- Compound: "Cc1ccc(S(=O)(=O)Nc2nc3ccccc3nc2Nc2ccc3nsnc3c2)cc1"
  IC50: "inactive"
- Compound: "C1Cc2[nH]nc(-c3nn[nH]n3)c2C1"
  IC50: "inactive"
- Compound: "FC(F)(F)c1ccc(Nc2nc(-c3c(C(F)(F)F)nc4ccccn34)cs2)cc1"
  IC50: "3.32 µM (active)"
- Compound: "COC1CCN(C(=O)c2cc(Cc3n[nH]c(=O)c4ccccc34)ccc2F)CC1"
  IC50: "inactive"
- Compound: "COc1cc(Nc2ncc(F)c(Nc3ccc4c(n3)N(COP(=O)(O)O)C(=O)C(C)(C)O4)n2)cc(OC)c1OC"
  IC50: "4.68 µM (active)"
- Compound: "Cn1cc(-c2ccc3ncc(Cc4ccc5ncccc5c4)n3n2)cn1"
  IC50: "inactive"
- Compound: "Cc1cc(OCc2nnc(SC3CCCC3)n2-c2cccnc2)ccc1-c1ccc(S(C)(=O)=O)cc1"
  IC50: "inactive"
- Compound: "CN(C)C1CCN(C(=O)c2ccc(NC(=O)Nc3nc(N4CCOCC4)nc(N4CCOCC4)n3)cc2)CC1"
  IC50: "0.934 µM (active)"
- Compound: "CC#C[C@@H](CC(=O)O)c1ccc(OCc2cccc(-c3ccc(C(F)(F)F)cc3)c2)cc1"
  IC50: "inactive"
- Compound: "Nc1ncnc2c1C(=O)N(c1ccc(C3CCC(CC(=O)O)CC3)cc1)CCO2 (configuration not stated)"
  IC50: "inactive"
- Compound: "COc1ncc(-c2ccc3c(Nc4cc(Oc5cc(F)cc(F)c5)cc(C(=O)O)c4)c(S(=O)(=O)NC4CC4)cnc3c2)c(OC)n1"
  IC50: "inactive"
- Compound: "CC(C)c1nn(-c2c(Cl)cccc2Cl)c2nc(Cc3ccc(OCCO)cc3)[nH]c(=O)c12"
  IC50: "0.0833 µM (active)"
- Compound: "COCc1c(-c2ccc(NC(=O)Nc3cc(C(F)(F)F)ccc3F)c(F)c2)c2c(N)ncnn2c1CN1CCOCC1"
  IC50: "7.42 µM (active)"
- Compound: "Cc1ccc(NC(=O)[C@H]2CCCN(C(=O)c3c(C)cccc3F)[C@H]2c2ccc(NC3CCCC3)cc2)cc1C(F)(F)F"
  IC50: "inactive"
- Compound: "O=C([O-])C[O-].[Pt+2]"
  IC50: "inactive"
- Compound: "O=C1c2cccc(O)c2C(=O)c2c(O)cc(CO)cc21"
  IC50: "inactive"
- Compound: "C[C@H](NC(=O)[C@@H](O)c1cc(F)cc(F)c1)C(=O)N[C@@H]1C(=O)N(C)c2ccccc2-c2ccccc21"
  IC50: "inactive"
- Compound: "CN(CC(=O)N(Cc1ccc(C2CCCCC2)cc1)c1ccc(C(=O)O)c(O)c1)S(=O)(=O)c1c(F)c(F)c(F)c(F)c1F"
  IC50: "8.33 µM (active)"
- Compound: "CC(=O)O/N=C1\\C(=O)N(Cc2cc(Cl)ccc2Cl)c2ccc(Cl)cc21"
  IC50: "8.33 µM (active)"
- Compound: "Cc1cccc(-c2[nH]c(CNc3ccccc3F)nc2-c2ccc3ncnn3c2)n1"
  IC50: "inactive"
- Compound: "Cc1nc(N)ncc1-c1nc(N2CCOCC2)c2sc(C(C)(C)O)cc2n1"
  IC50: "4.68 µM (active)"
- Compound: "COc1cccc([C@@H](C)NCCCc2ccccc2Cl)c1"
  IC50: "inactive"
- Compound: "CCOC(=O)c1ccnc(CNCC(=O)N(CC)CCN(C)C)c1"
  IC50: "inactive"
- Compound: "c1cc(OCCN2CCCCC2)cc(-c2n[nH]c3ccc(-c4ncn[nH]4)cc23)c1"
  IC50: "inactive"
- Compound: "O=C(O)c1ccc(O)c2ncccc12"
  IC50: "inactive"
- Compound: "CC(C)C[C@@H]1NC(=O)[C@@H](C(C)C)NC(=O)[C@@H]2CCCN2C(=O)[C@@H](CC(=O)O)NC(=O)[C@@H](Cc2c[nH]c3ccccc23)NC1=O"
  IC50: "inactive"
- Compound: "C[C@@H](NC(=O)c1ncnc(N)c1Cl)c1ncc(C(=O)Nc2cc(C(F)(F)F)c(Cl)cn2)s1"
  IC50: "inactive"
